Kindly state refractive index for each of the entries shown.
assayRemarks: refractive index (Na D-line) (dimensionless); wn = mass fraction of the nth substance listed
experimentalSetup: 293.15 K; 101 kPa; Liquid; Standard Abbe refractometry; w1 = 0.4
Form field (numeric): enter value without unit.

Q. Need refractive index, item CCCCCC[N+](CC)(CC)CC.F[B-](F)(F)F [N,N,N-triethyl-N-hexylammonium tetrafluoroborate] + O=S(=O)(O)C(F)(F)F
A. 1.3728

Q. Need refractive index, item CCCCCCCC[N+](CC)(CC)CC.F[B-](F)(F)F [N,N,N-triethyl-N-octylammonium tetrafluoroborate] + O=S(=O)(O)C(F)(F)F
A. 1.3745

Q. Need refractive index, item CC[N+](CC)(CC)CC.F[B-](F)(F)F [tetraethylammonium tetrafluoroborate] + O=S(=O)(O)C(F)(F)F
A. 1.3656

Q. Need refractive index, item CCCCCC[N+](CC)(CC)CC.[F][Sb-]([F])([F])([F])([F])[F] [N,N,N-triethyl-N-hexylammonium hexafluoroantimonate] + O=S(=O)(O)C(F)(F)F
A. 1.3628

Q. Need refractive index, item CC[N+](CC)(CC)CC.F[P-](F)(F)(F)(F)F [tetraethylammonium hexafluorophosphate] + O=S(=O)(O)C(F)(F)F
A. 1.3691

Q. Need refractive index, item CC[N+](CC)(CC)CC.[F][Sb-]([F])([F])([F])([F])[F] [tetraethylammonium hexafluoroantimonate] + O=S(=O)(O)C(F)(F)F
A. 1.3571

Q. Need refractive index, item CCCCCCCC[N+](CC)(CC)CC.F[P-](F)(F)(F)(F)F [N,N,N-triethyl-N-octylammonium hexafluorophosphate] + O=S(=O)(O)C(F)(F)F
A. 1.3781

Q. Need refractive index, item CCCC[N+](CC)(CC)CC.F[P-](F)(F)(F)(F)F [N,N,N-triethyl-N-butylammonium hexafluorophosphate] + O=S(=O)(O)C(F)(F)F
A. 1.3745

Q. Need refractive index, item CCCC[N+](CC)(CC)CC.F[B-](F)(F)F [N,N,N-triethyl-N-butylammonium tetrafluoroborate] + O=S(=O)(O)C(F)(F)F
A. 1.3698

Q. Need refractive index, item CCCCCC[N+](CC)(CC)CC.F[P-](F)(F)(F)(F)F [N,N,N-triethyl-N-hexylammonium hexafluorophosphate] + O=S(=O)(O)C(F)(F)F
A. 1.3762

Where do the numbers come from? From the NIST ThermoML archive (doi:10.1021/je300993n).
